Experiment: Shh-driven Gli reporter inhibition – luminescence, Shh-LIGHT2 cells, Gli-luciferase, primary screen (AID 2313);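 further: pathway switched on by Shh-conditioned medium diluted 1 in 25 in low serum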
Conditions: 30 h, stronger effect = higher value
Hit rate of the full screen: of about 22,000 compounds, about 460 (2.1%) were called active. Roughly 2% stayed inconclusive and do not appear here. The list comes from a sample in which actives are over-represented; it also holds close analogues and randomly drawn compounds.
reported-property: inhibition

Recall and state the measured inhibition for Cc1ccc(S(=O)(=O)Nc2cccc3c2O[C@@H](CN(C)S(=O)(=O)c2c(C)noc2C)[C@@H](C)CN([C@H](C)CO)C3=O)cc1 .
-7.42% (inactive)

Recall and state the measured inhibition for CC(C)NC(=O)N(C)C[C@H]1Oc2c(NS(=O)(=O)c3ccc(Cl)cc3)cccc2C(=O)N([C@@H](C)CO)C[C@H]1C .
3.77% (inactive)

Recall and state the measured inhibition for CC(C)NC(=O)N(C)C[C@H]1Oc2c(NC(=O)c3ccncc3)cccc2C(=O)N([C@@H](C)CO)C[C@H]1C .
10.7% (inactive)

Recall and state the measured inhibition for C[C@@H]1CCCCO[C@H](CN(C)S(=O)(=O)c2ccc(Cl)cc2)[C@@H](C)CN([C@H](C)CO)C(=O)c2cc(NC(=O)Nc3ccc4c(c3)OCO4)ccc2O1 .
-3.15% (inactive)

Recall and state the measured inhibition for COc1ccc(S(=O)(=O)Nc2cccc3c2O[C@@H](CN(C)C(=O)Nc2ccccc2)[C@@H](C)CN([C@H](C)CO)C3=O)cc1 .
2.98% (inactive)

Recall and state the measured inhibition for C[C@H](CO)N1C[C@H](C)[C@H](CN(C)C(=O)Nc2ccc(C(F)(F)F)cc2)Oc2ccc(N(C)C)cc2CC1=O .
-27.1% (inactive)

Recall and state the measured inhibition for O=C(Oc1ccc(Cl)cc1)c1csc(C2COc3ccccc3O2)n1 (configuration not stated) .
-8.84% (inactive)
